Target: Sigma-1 receptor (Cavia porcellus)
Construct: guinea pig brains were homogenized; from tissue; host or cells: guinea pig brain membranes
Sequence (Q60492 whole entry): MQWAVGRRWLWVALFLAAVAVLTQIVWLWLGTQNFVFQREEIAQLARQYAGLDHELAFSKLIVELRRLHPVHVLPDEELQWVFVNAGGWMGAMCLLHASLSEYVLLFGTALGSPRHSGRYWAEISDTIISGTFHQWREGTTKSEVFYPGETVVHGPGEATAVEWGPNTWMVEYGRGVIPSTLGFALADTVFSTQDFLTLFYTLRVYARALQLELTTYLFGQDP
Experiment: Sigma-1 receptor binding assay, [3H](+)-pentazocine displacement in brain membranes
Settings: 2.5 h, compound at 10^−7 M; [3H](+)-pentazocine 0.5 nM; guinea pig brain membranes; non-specific binding defined by 1 μM haloperidol; read-out: Percent Replacement Sigma-1 receptor [10^−7 M]
Structures can show the parent of a compound that is named as a salt.
Rule: inhibition at 0.1 µM of 80% or more gives YES; anything lower gives NO.

Here's what some known entries look like.
CC(=O)O[C@@H]1CN(Cc2ccccc2)C[C@H]1N1CCN(S(=O)(=O)c2cccc3ccccc23)CC1 [Example 60, acetate dihydrochloride] : NO
O[C@H]1CN(Cc2ccccc2)C[C@@H]1N1CCN(c2ccccc2Cl)CC1 : YES
O[C@@H]1CN(Cc2ccccc2)C[C@H]1N1CCC(CN2CCc3ccccc3C2)CC1 : NO
O[C@@H]1CN(Cc2ccccc2)C[C@H]1N1CCN(c2ccccc2Cl)CC1 : YES

Prompt line: Quick check, inhibition at 0.1 µM >= 80%? CC(C)(C)OC(=O)N1CCN([C@@H]2CN(Cc3ccccc3)C[C@H]2O)CC1
Response line: YES

Prompt line: Identify whether the reported inhibition at 0.1 µM of the following molecule is 80% or greater: COC(=O)c1ccc(N[C@@H]2CN(Cc3ccccc3)C[C@H]2O)cc1
Response line: NO
